Assign Ki to each entry below.
Test: DRUGMATRIX: Sigma2 radioligand binding (ligand: [3H] Ifenprodil)
Type: cell membranes, Rattus norvegicus, Wistar, Brain, Membrane
Details: Not Active = under 50% inhibition at 10 µM; read-out: Ki
Write the answer as a number in nM, unit excluded.

Note down Ki recorded for CCCCCCCCNC(C)C(O)c1ccc(SC(C)C)cc1 (configuration not stated)
13.2

Note down Ki recorded for CN1CCCC(CN2c3ccccc3Sc3ccccc32)C1 (configuration not stated)
388

====

Target: C-C chemokine receptor type 2 (Homo sapiens, UniProt P41597); also: in other assays of this panel Not Active means under 50% inhibition at 10 µM
Sequence (P41597 whole entry): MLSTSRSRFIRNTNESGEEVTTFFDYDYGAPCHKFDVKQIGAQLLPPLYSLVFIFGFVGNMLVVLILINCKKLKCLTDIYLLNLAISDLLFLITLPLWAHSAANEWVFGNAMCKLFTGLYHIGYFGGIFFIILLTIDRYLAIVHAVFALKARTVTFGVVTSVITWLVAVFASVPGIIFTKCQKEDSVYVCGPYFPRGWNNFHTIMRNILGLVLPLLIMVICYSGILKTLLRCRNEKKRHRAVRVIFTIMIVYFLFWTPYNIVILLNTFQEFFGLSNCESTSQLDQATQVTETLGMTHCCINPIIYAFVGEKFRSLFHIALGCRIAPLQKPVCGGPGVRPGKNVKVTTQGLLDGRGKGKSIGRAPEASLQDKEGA
Format: cell membranes, Membrane
Settings: cho-k1
Measurement Label: IC50

Sample answers from the record:
compound="ClC(Cl)(Cl)Cl [CARBON TETRACHLORIDE]" measurement_label=IC50 test_value="Not Active"
compound="C[C@]12CC[C@@H]3c4ccc(O)cc4CC[C@H]3[C@@H]1C[C@@H](O)[C@@H]2O [ESTRIOL]" measurement_label=IC50 test_value="Not Active"
compound="Nc1ccc(S(=O)(=O)NC(=O)c2ccccc2)cc1 [SULFABENZAMIDE]" measurement_label=IC50 test_value="Not Active"
compound="CN(C)CCC=C1c2ccccc2CCc2ccccc21 [AMITRIPTYLINE]" measurement_label=IC50 test_value="Not Active"
compound="O=C(O)c1cc(-c2ccc(F)cc2F)ccc1O [DIFLUNISAL]" measurement_label=IC50 test_value="Not Active"

Note down IC50 recorded for C[C@H]1[C@H](NC(=O)/C(=N\OC(C)(C)C(=O)O)c2csc(N)n2)C(=O)N1S(=O)(=O)O [AZTREONAM]
Not Active

Note down IC50 recorded for Cc1ccc(C(=O)c2ccc(CC(=O)O)n2C)cc1 [TOLMETIN]
Not Active

Note down IC50 recorded for CC[C@H]1[C@@H]2C[C@H]3[C@@H]4N(C)c5ccccc5[C@]45C[C@@H]([C@@H]2[C@H]5O)N3[C@@H]1O [AJMALINE]
Not Active

Note down IC50 recorded for CCN(CC)CCCC(C)Nc1c2ccc(Cl)cc2nc2ccc(OC)cc12 (centres undefined) [QUINACRINE]
Not Active

====

Molecular target: Calcitonin receptor (Homo sapiens); also: in other assays of this panel Not Active means under 50% inhibition at 10 µM
Sequence (P30988 whole entry): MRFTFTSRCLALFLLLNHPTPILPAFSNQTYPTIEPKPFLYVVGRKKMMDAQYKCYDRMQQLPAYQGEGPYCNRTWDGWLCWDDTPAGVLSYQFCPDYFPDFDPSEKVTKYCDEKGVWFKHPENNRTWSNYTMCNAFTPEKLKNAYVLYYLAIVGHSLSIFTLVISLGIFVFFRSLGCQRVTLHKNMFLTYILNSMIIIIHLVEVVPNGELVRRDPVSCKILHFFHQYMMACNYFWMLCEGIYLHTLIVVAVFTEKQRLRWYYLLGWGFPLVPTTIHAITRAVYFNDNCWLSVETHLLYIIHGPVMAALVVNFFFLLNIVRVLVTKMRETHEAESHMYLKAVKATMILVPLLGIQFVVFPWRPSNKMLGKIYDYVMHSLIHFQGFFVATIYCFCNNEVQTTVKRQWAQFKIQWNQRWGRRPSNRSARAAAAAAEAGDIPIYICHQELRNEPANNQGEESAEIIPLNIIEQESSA
Assay type: cell membranes, Membrane
Conditions: t47d
Measurement Label: IC50

Sample answers from the record:
compound="CC(=O)OCC(=O)[C@@]1(O)CC[C@H]2[C@@H]3CCC4=CC(=O)CC[C@]4(C)[C@@]3(F)[C@@H](O)C[C@@]21C [FLUDROCORTISONE ACETATE]" test_value="Not Active"
compound="CCC1=C(C)CN(C(=O)NCCc2ccc(S(=O)(=O)NC(=O)N[C@H]3CC[C@H](C)CC3)cc2)C1=O [GLIMEPIRIDE]" test_value="Not Active"
compound=CN1C[C@@H]2C[C@H]1CN2c1cc2c(cc1F)c(=O)c(C(=O)O)cn2C1CC1 test_value="Not Active"
compound="CS(=O)(=O)Nc1ccc([N+](=O)[O-])cc1Oc1ccccc1 [NIMESULIDE]" test_value="Not Active"
compound="C[S+](C)[O-] [DIMETHYL SULFOXIDE]" test_value="Not Active"

Please respond with reported IC50 (system Calcitonin receptor (Homo sapiens)) for "C[C@@H]1O[C@@H](O[C@H]2C[C@@H](O)[C@]3(CO)[C@H]4[C@H](O)C[C@]5(C)[C@@H](C6=CC(=O)OC6)CC[C@]5(O)[C@@H]4CC[C@]3(O)C2)[C@H](O)[C@H](O)[C@H]1O" . Also: in other assays of this panel Not Active means under 50% inhibition at 10 µM.
Not Active

Please respond with reported IC50 (system Calcitonin receptor (Homo sapiens)) for "C#C[C@]1(O)CC[C@H]2[C@@H]3CCC4=CC(=O)CC[C@]4(C)[C@H]3CC[C@@]21C" . Also: in other assays of this panel Not Active means under 50% inhibition at 10 µM.
Not Active
